Compiled from multiple publications: IC50 readings for MAGL (Homo sapiens).
Just the number please, in nM, no unit attached.

Answered examples (4):
O=C(c1cccc(N2CC(F)(CO)C2)c1Cl)N1CCN2C[C@@](O)(c3ccc(F)c(Cl)c3)CC[C@@H]2C1	84.2
Cc1ccc2oc(N3CCN(C(=O)c4cnc(-c5cnnn5CC(C)(C)C)c(F)c4)CC3)nc2n1	1300
O=C1CO[C@H]2[C@H](CN(C(=O)N3CC(c4ccc(CC(F)(F)F)cc4)C3)CC2(F)F)N1 (single isomer, unassigned)	2.6
O=C(c1cnc(OCC2(C(F)(F)F)CC2)c(C(F)(F)F)c1)N1CCN(c2nc3nc(Cl)ccc3o2)CC1	8

Problem: Can you look up the measured IC50 of "Cc1ccc2oc(N3CCN(C(=O)c4ccc(-c5nnc(C(C)(C)C)o5)c(C(F)(F)F)c4)CC3)nc2n1" for me?
Solution: 13

Problem: Can you look up the measured IC50 of "O=C(c1cscn1)N1CCN(C2CN(C(=O)c3cn(-c4ccc(F)cc4)c4ccccc34)C2)CC1" for me?
Solution: 3280

====

Compiled from multiple publications: pIC50 readings for MAGL (Homo sapiens, UniProt Q99685).
pIC50 here: minus log base 10 of the concentration, concentration in moles per litre.

Cc1c(C(=O)N2CCN(C3CN(C(=O)c4nccs4)C3)CC2)sc2cc(C(F)(F)F)ccc12	7.02
Cn1nc(-c2cccc(F)c2)c2cc(C(=O)N3CC(N[C@H]4CCN(C(=O)c5cscn5)C4)C3)ccc21	6.07
O=C(c1cccc(-c2ccn[nH]2)c1F)N1CCN2C[C@@](O)(c3ccc(F)c(F)c3)CC[C@@H]2C1	7.85
O=C1CO[C@H]2CCN(C(=O)N3CCC(C#Cc4ccc(F)cc4Cl)CC3)C[C@H]2N1	7.64
O=C(c1cnc(OCC2(C(F)(F)F)CC2)c(Cl)c1)N1CCN(c2nc3nc(Cl)ccc3o2)CC1	7.82
O=C(c1cscn1)N1CCC(C2CN(C(=O)c3sc4cc(F)ccc4c3Cl)C2)CC1	7.25

Problem: State its pIC50 on MAGL (Homo sapiens, UniProt Q99685): "Cc1ccc2oc(N3CCN(C(=O)c4ccc(-c5cn(C6(C(F)(F)F)CC6)nn5)cc4)CC3)nc2n1"
Sequence (Q99685 whole entry, species assumed): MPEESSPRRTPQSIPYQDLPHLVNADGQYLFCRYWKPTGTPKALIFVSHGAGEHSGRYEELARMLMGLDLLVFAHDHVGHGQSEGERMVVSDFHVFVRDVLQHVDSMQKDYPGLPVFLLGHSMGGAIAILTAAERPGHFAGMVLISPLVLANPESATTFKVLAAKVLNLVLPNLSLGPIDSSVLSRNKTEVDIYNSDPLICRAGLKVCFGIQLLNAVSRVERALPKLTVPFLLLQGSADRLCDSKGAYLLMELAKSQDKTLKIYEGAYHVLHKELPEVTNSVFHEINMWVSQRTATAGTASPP
Solution: 6.81

Problem: State its pIC50 on MAGL (Homo sapiens, UniProt Q99685): "O=C1CO[C@H]2CCN(C(=O)N3CC4(CC(CC5=C6C=CC=[N+]6[B-](F)(F)n6cccc65)C4)C3)C[C@H]2N1"
Solution: 9.11

Problem: State its pIC50 on MAGL (Homo sapiens, UniProt Q99685): "COc1cccc(C(F)(F)F)c1CCC1CN(C(=O)N2CC[C@@H]3OCC(=O)N[C@@H]3C2)C1"
Solution: 8.52

Problem: State its pIC50 on MAGL (Homo sapiens, UniProt Q99685): COc1ccc(C(c2ccccc2)C2CCN(C(=O)N3CC[C@@H]4OCC(=O)N[C@@H]4C3)CC2)cc1OC (single isomer, unassigned)
Solution: 8.70

Problem: State its pIC50 on MAGL (Homo sapiens, UniProt Q99685): "O=C1CO[C@H]2CCN(C(=O)N3CCC(c4ccnc(C5CC5)c4)CC3)C[C@H]2N1"
Solution: 6.24

====

pIC50: −log10 of the molar value.
Compiled from multiple publications: pIC50 readings for MAGL (Homo sapiens, UniProt Q99685).
Rule: satisfied for pIC50 not less than 7, not satisfied for anything less.

CC(C)COc1ccc(C2CN(C(=O)N3CC[C@@H]4OCC(=O)N[C@@H]4C3)C2)cc1	satisfied
O=C(c1cscn1)N1CCN(C2CN(C(=O)c3ccc(-c4cccc(C(F)(F)F)c4)cc3Cl)C2)CC1	satisfied
O=C1CO[C@H]2CCN(C(=O)N3CC4CN(S(=O)(=O)c5ccccc5)CC4C3)C[C@H]2N1 (stereo partly shown)	not satisfied

Problem: Given O=C1CCC(CCC(=O)N2C[C@@H]3CN(Cc4ccc(C(F)(F)F)cc4F)C[C@H]3C2)N1 (single isomer, unassigned; (+)) , state whether its pIC50 is at least 7.
Solution: not satisfied

Problem: Given "O=C(c1ccc2nc(CCc3ccccc3)[nH]c2c1)N1CCN(C2CN(C(=O)c3cscn3)C2)CC1" , state whether its pIC50 is at least 7.
Solution: not satisfied
